The measured values listed here are drawn from patent US20220339143A1.

Experiment: Single dose PK in healthy subjects (Cohorts 1, 2, S1 and S2), plasma
Assay type: in vivo, human
Conditions: human, plasma, iv, 112 mg, 112 mg single IV infusion, healthy subjects; read-out: AUC24 Mean
Measured Property: AUC (ng·h/mL)
Numeric only. Scale: ng·h/mL

Reported AUC, molecule COC(=O)N1CCC[C@H](NS(C)(=O)=O)[C@@H]1CO[C@H]1CC[C@@H](c2ccccc2)CC1 [Compound A] : ____
2090

* * *

Assay: Single dose PK in healthy subjects (Cohorts 1, 2, S1 and S2), plasma
Format: in vivo, human
Details: human, plasma, iv, 56 mg, 56 mg single IV infusion, healthy subjects; read-out: AUCinf Mean
Measured Property: AUC(0-inf) (ng·h/mL)
Numeric only. Scale: ng·h/mL

Reported AUC(0-inf), compound COC(=O)N1CCC[C@H](NS(C)(=O)=O)[C@@H]1CO[C@H]1CC[C@@H](c2ccccc2)CC1 : ____
1080

* * *

Experiment: Single dose PK in healthy subjects (Cohorts 1, 2, S1 and S2), plasma
Type: in vivo, human
Conditions: human, plasma, intravenous, 112 mg; 8 hr; read-out: Plasma concentration, Median
Measured Property: concentration at 8 h (ng/mL)
Numeric only. Scale: ng/mL

Reported concentration at 8 h, compound COC(=O)N1CCC[C@H](NS(C)(=O)=O)[C@@H]1CO[C@H]1CC[C@@H](c2ccccc2)CC1 : ____
195

* * *

Assay: Single dose PK in healthy subjects (Cohorts 1, 2, S1 and S2), plasma
Format: in vivo, human
Details: human, plasma, intravenous, 240 mg; 0.5 hr; read-out: Plasma concentration, Minimum
Measured Property: concentration at 0.5 hr (ng/mL)
Numeric only. Scale: ng/mL

Reported concentration at 0.5 hr, molecule COC(=O)N1CCC[C@H](NS(C)(=O)=O)[C@@H]1CO[C@H]1CC[C@@H](c2ccccc2)CC1 : ____
228

* * *

Assay: Single dose PK in healthy subjects (Cohorts 1, 2, S1 and S2), plasma
Format: in vivo, human
Conditions: human, plasma, intravenous, 56 mg; 3 hr; read-out: Plasma concentration, Median
Text: […]
Measured Property: concentration at 3 h (ng/mL)
Numeric only. Scale: ng/mL

Reported concentration at 3 h, molecule COC(=O)N1CCC[C@H](NS(C)(=O)=O)[C@@H]1CO[C@H]1CC[C@@H](c2ccccc2)CC1 : ____
112

* * *

Experiment: Single dose PK in healthy subjects (Cohorts 1, 2, S1 and S2), plasma
Format: in vivo, human
Conditions: human, plasma, intravenous, 180 mg; 3 hr; read-out: Plasma concentration, Q3
Measured Property: concentration at 3 h (ng/mL)
Numeric only. Scale: ng/mL

Reported concentration at 3 h, molecule COC(=O)N1CCC[C@H](NS(C)(=O)=O)[C@@H]1CO[C@H]1CC[C@@H](c2ccccc2)CC1 : ____
324

* * *

Experiment: Single dose PK in healthy subjects (Cohorts 1, 2, S1 and S2), plasma
Format: in vivo, human
Details: human, plasma, intravenous, 28 mg; 1.5 hr; read-out: Plasma concentration, Q3
Measured Property: concentration at 1.5 h (ng/mL)
Numeric only. Scale: ng/mL

Reported concentration at 1.5 h, molecule COC(=O)N1CCC[C@H](NS(C)(=O)=O)[C@@H]1CO[C@H]1CC[C@@H](c2ccccc2)CC1 : ____
49.9
